test: qHTS assay to identify small molecule agonists of the vitamin D receptor (VDR) signaling pathway - cell viability counter screen (AID 743224); conditions: VDR-bla HEK293T viability, CellTiter-Glo luminescence, 16 h; series mostly up to 62.6 µM; further: nearly all actives have a fitted effect of over 50% in size; further: potency means the concentration at half of the fitted maximal effect
Results filed as inconclusive are left out. The source made the active and inactive calls. The call rests on the fitted dose curve; in most records, active means well fitted cell-killing curve with a large enough effect in the repeat runs; inconclusive means weak or mixed curves, or effect the other way; inactive means no such curve, though single readings can be large or run the other way.
measure: Potency

Study these solved cases before continuing.
CC(C)C(Nc1ccc(C(F)(F)F)cc1Cl)C(=O)OC(C#N)c1cccc(Oc2ccccc2)c1 (stereo not drawn) :: inactive
C[C@]12Cc3cn[nH]c3C[C@@H]1CC[C@@H]1[C@@H]2CC[C@@]2(C)[C@H]1CC[C@]2(C)O :: 29.8 µM (active)
CC(=O)[O-].CC(=O)[O-].O.O.O.[Pb+2] :: inactive
CCCCc1ccccc1 :: inactive
CSSC :: inactive

For CCc1cccc(C)c1N(C(=O)CCl)[C@@H](C)COC , what is its reported Potency?
inactive

For Brc1cccc(-c2ccccc2)c1 , what is its reported Potency?
inactive

For CC1(C)[C@H](/C=C2\CCSC2=O)[C@@H]1C(=O)OCc1coc(Cc2ccccc2)c1 , what is its reported Potency?
inactive

For COc1ccc(Cc2nccc3cc(OC)c(OC)cc23)cc1OC , what is its reported Potency?
inactive

* * *

test: qHTS assay to identify small molecule phospholipidosis (PLD) inducers (AID 1259344); conditions: HepG2 phospholipidosis, LipidTOX Red imaging, 24 h; series mostly up to 38.3 µM; further: on the % scale 0 is the no-effect control and ±100 the full control effect
Records with an inconclusive call do not appear. Activity calls are given as the source filed them. The call rests on the fitted dose curve; in most records, active means well fitted activation curve with a large enough effect; inconclusive means small, poorly fitted or top-dose-only effect; inactive means flat fitted curve, though single readings scatter.
measure: PLD induction

Nc1ccc(N=Nc2ccccc2)cc1 :: inactive
ClC1=C(Cl)[C@]2(Cl)[C@@H]3[C@H]4C[C@H]([C@@H]5O[C@H]45)[C@@H]3[C@@]1(Cl)C2(Cl)Cl :: inactive
Oc1ccc([C@H]2CNCc3c2ccc(O)c3O)cc1O :: -2.7% [at 7.66 µM] (inactive)
c1ccc2nc(N3CCNCC3)ccc2c1 :: inactive

* * *

experiment: qHTS assay to identify small molecule antagonists of the retinoid acid receptor (RAR) signaling pathway - cell viability counter screen (AID 1159551); settings: C3RL4 cells viability, ATP luminescence (CellTiter-Glo), 6 h; series mostly up to 92.4 µM; further: nearly all actives have a fitted effect of over 35% in size
Inconclusive results are not listed. Activity calls are given as the source filed them. Calls follow the shape of the dose curve; as a rule, active = well fitted cell-killing curve with a large enough effect in the repeat runs; inconclusive = weak or mixed curves, or effect the other way; inactive = flat fitted curve, though single readings scatter.
Returns: one label drawn from 1 = active, 0 = inactive

// return assay outcome for CC(=O)[O][Pb]([c]1ccccc1)([c]1ccccc1)[c]1ccccc1
1

// return assay outcome for CC(Cc1ccc(O)cc1)NCC(O)c1cc(O)cc(O)c1 (configuration not stated)
0

// return assay outcome for O=[N+]([O-])c1ccc(CCl)cc1
0

// return assay outcome for C[C@]12C/C(=C/O)C(=O)C[C@@H]1CC[C@@H]1[C@@H]2CC[C@@]2(C)[C@H]1CC[C@]2(C)O
0

// return assay outcome for N#CSCc1ccccc1
0

// return assay outcome for Nc1ccc(N=Nc2ccccc2)cc1
0

// return assay outcome for C#CCC1=C(C)C(OC(=O)C2C(C=C(C)C)C2(C)C)CC1=O (configuration not stated)
0

// return assay outcome for CNC(=O)CSP(=O)(OC)OC
0

// return assay outcome for O=[N+]([O-])c1cccc2cccc([N+](=O)[O-])c12
0

// return assay outcome for CC(=O)C(Cl)C(=O)N(C)C (configuration not stated)
0

// return assay outcome for O=C(CCCCl)c1ccc(F)cc1
0

// return assay outcome for CCN(CC)CCN1C(=O)CN=C(c2ccccc2F)c2cc(Cl)ccc21
0
